The reported numbers originate from patent US20080058263A1.

TARGET: T1, VEGFR-2-Fc (UniProt P35968 20-322)
T1 construct: domain: first 3 Ig domains; conditioned supernatant of 293T cells; also called VEGFR-2-Fc fusion protein; not shown: Fc fragment of the pIg vector
T1 sequence (P35968 20-322): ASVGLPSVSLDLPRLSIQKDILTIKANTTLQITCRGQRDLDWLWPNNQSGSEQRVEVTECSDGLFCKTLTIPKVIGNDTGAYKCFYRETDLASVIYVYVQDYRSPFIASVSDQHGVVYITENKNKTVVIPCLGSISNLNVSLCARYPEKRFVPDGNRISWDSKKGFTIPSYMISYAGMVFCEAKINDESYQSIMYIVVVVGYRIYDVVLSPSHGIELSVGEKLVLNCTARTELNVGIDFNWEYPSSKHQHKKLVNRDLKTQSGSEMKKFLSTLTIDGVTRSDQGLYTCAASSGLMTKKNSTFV
PROTOCOL TEXT: receptor-Fc IP
REPORTED PROPERTY: binding result

binder="43-8 (ligand) AHYNTEILKFMDVYQRSYCHPREVCIDVGKEYPDEIEYIFKPPCVSVYRCGGCCNSEGLQCMNTSTSYLSKTLFEIKPHQGQHIGEMSFANHTSCRCMSKLD" experimental_value="no binding"
binder="73-6 (ligand) GQNHHEVVKSIDNEWRKTQCMPREVCIDVGKEYPDEIEYIFKPPCVSVYRCGGCCNDEGLECMNTSTSYLSKTLFEIKPHQGQHIGEMSFANHTSCRCMSKLD" experimental_value="no binding"
binder="53-11 (ligand) AHYNTEILKSIDNEWRKTQCMPIETLVDIFQEYPDEIEYIFKPPCVSVYRCGGCCNSEGLQCVPTEESNITMQIMRITVPLSQGPKPVTISFLQHNKCECRPKKD" experimental_value="no binding"
binder="63-6 (ligand) GQNHHEVVKFMDVYQRSYCHPREVCIDVGKEYPDEIEYIFKPPCVSVYRCGGCCNDEGLECMNTSTSYLSKTLFEIKPHQGQHIGEMSFANHTSCRCMSKLD" experimental_value=binds
